# Test system: pRb (Ser780) in MDA-MB-453 cells
# Assay notes: pRb (Ser780) high content imaging cellular assay, CDK4-dependent MDA-MB-453
# Assay type: cell-based
# Experimental conditions: Homo sapiens, CDK4-dependent cell line, n = 4, read-out: pRb (Ser780) Cellular assays IC50 MDA-MB-453
Readout: IC50 (nM)
Give just the numeric value; nM need not be written.

Use these answered entries as a reference point.
Cpd smiles: CCN1CCN(Cc2ccc(Nc3ncc(F)c(-c4cc(F)c5nc(C)n(C(C)C)c5c4)n3)nc2)CC1
Measurement units: nM
IC50: 7.4

Cpd smiles: CN(C)C(=O)c1cc2cnc(Nc3ccc(N4CCNCC4)cn3)nc2n1C1CCCC1
Measurement units: nM
IC50: 53

Notebook entry, pRb (Ser780) in MDA-MB-453 cells assay: IC50 of CC(=O)c1c(C)c2cnc(Nc3ccc(N4CCNCC4)cn3)nc2n(C2CCCC2)c1=O = ? 23

---

# System: pRb (Ser780) in MDA-MB-453 cells
# Assay notes: pRb (Ser780) washout experiment in MDA-MB-453
# Type: cell-based
# Experimental conditions: Homo sapiens; MDA-MB-453, 4 h treatment, before compound removal; read-out: relative IC50 for pRb (Ser780) reduction, treatment phase
# key: entry, value: IC50
The reply should read as a number followed by its unit.

Cpd smiles: CC(=O)c1c(C)c2cnc(Nc3ccc(N4CCNCC4)cn3)nc2n(C2CCCC2)c1=O
Study system: pRb (Ser780) in MDA-MB-453 cells
Value reported: 14.1 nM

So what does the record say about IC50 for CCN1CCN(Cc2ccc(Nc3ncc(F)c(-c4cc(F)c5nc(C)n(C(C)C)c5c4)n3)nc2)CC1 ? 6.4 nM

---

# Test system: pRb in MDA-MB-231 cells
# Assay notes: Inhibition of pRb in breast cancer cell line MDA-MB-231
# Type: cell-based
# Experimental conditions: Homo sapiens, 16 hours
Reported IC50 values are given for each entry in this list.
Please reply with the bare figure in nM and do not write the unit itself.

Check out these entries, answers already filled in.
Cpd smiles: CC(=O)c1c(C)c2cnc(Nc3ccc(N4CCNCC4)cn3)nc2n(C2CCCC2)c1=O
IC50 [nM]: 16.1
--
Cpd smiles: CN(C)C(=O)c1cc2cnc(Nc3ccc(N4CCNCC4)cn3)nc2n1C1CCCC1
IC50 [nM]: 71.5

// next entry
Return IC50 measured with pRb in MDA-MB-231 cells given this compound: CCN1CCN(Cc2ccc(Nc3ncc(F)c(-c4cc(F)c5nc(C)n(C(C)C)c5c4)n3)nc2)CC1 17.1

---

Below: a set of entries, each annotated with reported pIC50.
# System: pRb in BT474 cells
# Assay notes: Inhibition of pRb in breast cancer cell line BT474
# Type: cell-based
# Experimental conditions: Homo sapiens, BT-474; 16 hours
Reminder that pIC50 means the negative base-10 logarithm of the concentration expressed in mol/L.

// below: answered compounds
Compound: CCN1CCN(Cc2ccc(Nc3ncc(F)c(-c4cc(F)c5nc(C)n(C(C)C)c5c4)n3)nc2)CC1 [Abemaciclib, abemaciclib]
pIC50: 8.34
--
Compound: CC(=O)c1c(C)c2cnc(Nc3ccc(N4CCNCC4)cn3)nc2n(C2CCCC2)c1=O [Palbociclib, palbociclib]
pIC50: 7.94

In the following, a different compound is considered.
Dear colleague, I am looking for the recorded pIC50 of the following compound: CN(C)C(=O)c1cc2cnc(Nc3ccc(N4CCNCC4)cn3)nc2n1C1CCCC1 [Ribociclib, ribociclib] 7.47

---

# Tested on: pRb (Ser780) in MDA-MB-453 cells
# Assay notes: pRb (Ser780) washout experiment in MDA-MB-453
# Format: cell-based
# Experimental conditions: Homo sapiens, read-out: relative IC50 for pRb (Ser780) reduction, 12 h after compound removal; MDA-MB-453, 4 h treatment then 12 h washout
Readout: IC50 (nM)
Expressed in nM, but write only the number.

Query: IC50; subject: CC(=O)c1c(C)c2cnc(Nc3ccc(N4CCNCC4)cn3)nc2n(C2CCCC2)c1=O 447
